Reported residual activity values follow for various compounds
- Tested on: FLT4 (human), P35916 [Q890H]
- Sequence (P35916 whole entry, looked up, stated change not applied): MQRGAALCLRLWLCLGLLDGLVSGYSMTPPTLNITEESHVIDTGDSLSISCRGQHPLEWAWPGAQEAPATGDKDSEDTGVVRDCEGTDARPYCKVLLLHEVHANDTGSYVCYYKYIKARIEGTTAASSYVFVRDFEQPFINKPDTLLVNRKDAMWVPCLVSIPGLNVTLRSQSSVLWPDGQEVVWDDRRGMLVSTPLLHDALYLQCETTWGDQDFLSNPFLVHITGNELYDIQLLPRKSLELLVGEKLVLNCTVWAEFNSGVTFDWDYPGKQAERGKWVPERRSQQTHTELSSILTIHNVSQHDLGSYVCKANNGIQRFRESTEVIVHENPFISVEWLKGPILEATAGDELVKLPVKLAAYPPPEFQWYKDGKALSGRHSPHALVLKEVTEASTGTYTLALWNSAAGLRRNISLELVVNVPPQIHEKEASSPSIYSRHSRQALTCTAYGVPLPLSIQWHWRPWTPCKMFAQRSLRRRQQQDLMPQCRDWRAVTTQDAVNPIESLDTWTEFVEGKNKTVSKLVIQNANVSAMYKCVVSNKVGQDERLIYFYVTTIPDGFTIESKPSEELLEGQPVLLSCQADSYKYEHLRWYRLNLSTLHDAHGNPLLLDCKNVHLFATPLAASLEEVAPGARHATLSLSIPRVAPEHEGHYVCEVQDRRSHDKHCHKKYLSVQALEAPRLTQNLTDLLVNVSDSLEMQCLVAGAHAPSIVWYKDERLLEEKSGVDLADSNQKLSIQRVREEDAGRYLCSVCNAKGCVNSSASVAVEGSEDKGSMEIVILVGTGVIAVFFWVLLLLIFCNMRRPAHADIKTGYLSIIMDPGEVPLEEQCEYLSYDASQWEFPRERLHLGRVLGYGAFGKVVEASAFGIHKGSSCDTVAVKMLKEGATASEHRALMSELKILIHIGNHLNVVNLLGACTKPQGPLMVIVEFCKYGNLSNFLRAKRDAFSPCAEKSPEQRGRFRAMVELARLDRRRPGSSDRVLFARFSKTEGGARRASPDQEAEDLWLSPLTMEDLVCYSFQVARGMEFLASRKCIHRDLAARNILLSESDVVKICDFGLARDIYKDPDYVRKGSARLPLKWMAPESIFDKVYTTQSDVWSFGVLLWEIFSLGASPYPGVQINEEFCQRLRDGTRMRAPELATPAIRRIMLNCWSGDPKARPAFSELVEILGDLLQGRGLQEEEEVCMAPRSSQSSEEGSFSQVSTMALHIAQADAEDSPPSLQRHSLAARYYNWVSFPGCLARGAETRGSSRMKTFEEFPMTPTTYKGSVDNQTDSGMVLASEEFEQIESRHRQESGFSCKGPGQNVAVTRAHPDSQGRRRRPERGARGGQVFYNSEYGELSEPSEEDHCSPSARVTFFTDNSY
- MEASUREMENT PROTOCOL: radiometric filter-binding kinase assay, Kinase HotSpot
- PARTICULARS: compound 0.5 µM; ATP 10 µM
The reply should consist of the numeric value with the unit placed after it.

Query block: What residual activity value was documented for this compound, CS(=O)(=O)CCNCc1ccc(-c2ccc3ncnc(Nc4ccc(OCc5cccc(F)c5)c(Cl)c4)c3c2)o1 ?
Result block: 93.3%

Query block: Need residual activity of CCn1cnc2c(Nc3cccc(Cl)c3)nc(N[C@@H]3CCCC[C@@H]3N)nc21 , thanks.
Result block: 105%

###

Listing of entries alongside the reported residual activity.
- TESTED ON: MARK4 (human) (UniProt Q96L34)
- Sequence (Q96L34 whole entry, looked up): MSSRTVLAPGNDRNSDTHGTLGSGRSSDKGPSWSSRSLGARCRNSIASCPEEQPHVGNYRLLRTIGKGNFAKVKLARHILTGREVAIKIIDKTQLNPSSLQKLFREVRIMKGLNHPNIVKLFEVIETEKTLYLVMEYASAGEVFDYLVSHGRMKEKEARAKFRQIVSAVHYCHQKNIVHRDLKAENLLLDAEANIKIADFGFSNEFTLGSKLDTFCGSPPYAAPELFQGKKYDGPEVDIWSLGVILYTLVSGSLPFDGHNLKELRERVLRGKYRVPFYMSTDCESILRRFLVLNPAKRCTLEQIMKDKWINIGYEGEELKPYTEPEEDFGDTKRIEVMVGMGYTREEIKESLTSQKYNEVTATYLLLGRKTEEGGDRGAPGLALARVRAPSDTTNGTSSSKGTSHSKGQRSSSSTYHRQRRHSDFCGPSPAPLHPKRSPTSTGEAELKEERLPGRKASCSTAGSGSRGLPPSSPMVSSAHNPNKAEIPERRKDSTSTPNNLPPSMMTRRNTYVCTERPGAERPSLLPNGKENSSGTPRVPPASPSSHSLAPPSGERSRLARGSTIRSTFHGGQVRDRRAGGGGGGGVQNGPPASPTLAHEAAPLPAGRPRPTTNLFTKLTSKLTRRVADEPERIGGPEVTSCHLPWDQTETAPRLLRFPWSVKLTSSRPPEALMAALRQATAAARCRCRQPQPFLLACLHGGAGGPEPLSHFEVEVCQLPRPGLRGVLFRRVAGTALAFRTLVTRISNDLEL
- MEASUREMENT PROTOCOL: radiometric filter-binding kinase assay, Kinase HotSpot
- PARTICULARS: compound 0.5 µM; ATP 10 µM
Entry rule: numbers only, all in %.

INSERT INTO assay_data (smiles_data, endpoint, test_result) VALUES
  ('O=C1NC(=O)c2c1c1c3ccccc3[nH]c1n1cncc21', 'residual activity', 26.8),
  ('CN(C)S(=O)(=O)c1ccc2c(c1)/C(=C/c1cc3c([nH]1)CCCC3)C(=O)N2', 'residual activity', 51.5),
  ('N#C/C(=C\c1ccc(O)c(O)c1)C(=O)NCc1ccccc1', 'residual activity', 104);

Here is another molecule to look at.
Query block: Data request, read-out residual activity, for O=C1c2ccccc2-c2nc3nnnn3nc21
Result block: 88.1

###

Recorded residual activity, one value per entry.
- Tested on: MAP2K6 (human), P52564 [S207E/T211E]
- Sequence (P52564 whole entry S207E/T211E, looked up): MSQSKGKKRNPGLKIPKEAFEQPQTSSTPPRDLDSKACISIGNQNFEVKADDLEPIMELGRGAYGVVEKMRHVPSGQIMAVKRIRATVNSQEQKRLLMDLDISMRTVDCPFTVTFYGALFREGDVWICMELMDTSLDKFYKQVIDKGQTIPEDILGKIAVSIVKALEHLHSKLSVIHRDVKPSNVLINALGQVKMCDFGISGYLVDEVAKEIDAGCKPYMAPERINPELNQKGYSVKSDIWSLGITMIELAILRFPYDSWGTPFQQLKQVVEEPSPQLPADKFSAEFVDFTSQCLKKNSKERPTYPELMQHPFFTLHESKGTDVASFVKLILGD
- MEASUREMENT PROTOCOL: radiometric filter-binding kinase assay, Kinase HotSpot
- PARTICULARS: compound 0.5 µM; ATP 10 µM
The reply should contain only the number, in %.

INSERT INTO results (smiles_data, unit_name, test_result) VALUES
  ('COc1cc2ncnc(Nc3ccc(Oc4ccccc4)cc3)c2cc1OC', '%', 102),
  ('CCN1/C(=C/C(C)=O)Sc2ccc(OC)cc21', '%', 86.7),
  ('FC(F)(F)c1ccc(/C=C/c2nc(COc3ccc(CCCCn4ccnn4)cc3)co2)cc1', '%', 100);

Query block: For the compound c1ccc(-c2n[nH]cc2-c2ccnc3ccccc23)nc1 , what residual activity is on record?
Result block: 138

###

- TESTED ON: CSNK1G2 (human)
- MEASUREMENT PROTOCOL: radiometric filter-binding kinase assay, Kinase HotSpot
- PARTICULARS: compound 0.5 µM; ATP 10 µM
ENDPOINT: residual activity (%)
I only need the number, in %, no unit after it.

Query block: State its residual activity on CSNK1G2 (human): Cc1cncc2cccc(S(=O)(=O)N3CCCN(C(=O)CN)C[C@H]3C)c12
Result block: 95.1

Query block: For CSNK1G2 (human), provide residual activity of NC(=O)c1cccc(-c2cc(Nc3ccc(OC(F)(F)F)cc3)ncn2)c1 please.
Result block: 89.5

Query block: Tell me reported residual activity for C[C@@H]1CCN(C(=O)CC#N)C[C@@H]1N(C)c1ncnc2[nH]ccc12 , tested with CSNK1G2 (human).
Result block: 95.4

Query block: residual activity of N#Cc1c[nH]c2c[nH]/c(=N\Cc3cccnc3)cc2/c1=N\c1ccc(F)c(Cl)c1 on CSNK1G2 (human)?
Result block: 102

Query block: Requested read-out residual activity, target or system CSNK1G2 (human), entry COc1ccc(Cl)cc1NC(=O)Nc1cc(C)nc2ccccc12
Result block: 98.5

Query block: Test system CSNK1G2 (human); read-out residual activity; what value for Ic1cccc(CSc2nnc(-c3ccncc3)o2)c1 ?
Result block: 99.2

Query block: Provide the documented residual activity with CSNK1G2 (human) as the system for Cc1nc(-c2ccccc2)c(-c2ccncc2)o1
Result block: 92.2
